Give measured inhibition for each item. Keep answers brief.
Test: inhibitors of TNFa-induced NFkB p65 translocation, primary screen, imaging, HUVEC, MLSMR starter and 10KST1 sets (AID 438);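 note: compound added about 3h40 before a 20 min TNFalpha stimulation; signal is the nuclear over cytoplasmic p65 intensity ratio per well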
Conditions: HUVEC TNFa-induced p65 nuclear translocation; at 2 µM, hits give high values, 0% TNFa-plus-vehicle, 100% no-TNFa wells
Give bare numbers, in %.

compound="C#CC(CO)N(CCN(Cc1ccccc1)C(C#C)CO)Cc1ccccc1 (configuration not stated)" reading_unit=% quantitative_readout=1.8
compound="O=C(CSc1nnc(-c2ccco2)n1CC1CCCO1)NC1CCCC1 (configuration not stated)" reading_unit=% quantitative_readout=-6.2
compound="CCCNC(=O)C1CC(=O)N(c2ccc(OCC(=O)Nc3cc(C)cc(C)c3)cc2)C1 (configuration not stated)" reading_unit=% quantitative_readout=-6.2
compound=CCCCOC(=O)c1cccc(NC(=O)CC)c1 reading_unit=% quantitative_readout=-22.3
compound=C=C(C)COc1ccc(-c2nc(N)ncc2-c2ccc(OC)cc2)c(O)c1 reading_unit=% quantitative_readout=-9.5
compound=CCc1cc2ccc(C)cc2nc1SCC(=O)N1CCN(C(=O)c2ccco2)CC1 reading_unit=% quantitative_readout=4.8
compound=COc1ccc(OC)c(NS(=O)(=O)Cc2ccccc2)c1 reading_unit=% quantitative_readout=6.3
compound=Clc1ccccc1OCCCCn1ccnc1 reading_unit=% quantitative_readout=-0.2
compound=Cn1c(CN2CCCCC2)nc2cc(NC(=O)c3ccccc3)ccc21 reading_unit=% quantitative_readout=-0.8
compound=COc1ccc2cc(CN(CCO)C(=O)c3ccc(Br)cc3)c(=O)[nH]c2c1 reading_unit=% quantitative_readout=5.3

# map each compound to its inhibition
1. COc1cc(C2=NOC(C(=O)NCc3ccc(F)cc3)C2)cc(OC)c1OC (configuration not stated)
2. CCn1ncc(C2=NOC(C(=O)Nc3ccc4c(c3)OCO4)C2)c1C (configuration not stated)
3. Cc1ccc2nc3c(cc(C(=O)NCC4CCCO4)n3C)c(=O)n2c1 (configuration not stated)
4. CCN(CC)S(=O)(=O)c1ccc(N2CCCC2)c(C(=O)OCC(=O)/C(C#N)=C(\C)N)c1
5. O=C(CCN1CCN(CCO)CC1)Nc1ccc(OCc2ccccc2)cc1

[13.6, -0.3, 9.7, -16, 4.8]

# map each compound to its inhibition
1. CCn1c(CCC(=O)Nc2nc3c(s2)CCCC3)nc2cc(S(=O)(=O)N(C)C)ccc21
2. O=C(CCn1c(=O)sc2ccccc21)NCc1ccc2c(c1)OCO2
3. Cc1cc2ncn(S(=O)(=O)c3ccc(S(=O)(=O)N4CCOCC4)cc3)c2cc1C

1: 1.4; 2: -11.1; 3: -3.3
